TARGET_OF_ASSAY: Mre11ND Y187C (Pyrococcus furiosus, UniProt Q8U1N9 1-342, Y187C)
MEASUREMENT_PROTOCOL: fluorescence polarization
METRIC_NAME: Kd (µM)
Report as a plain number; the unit µM is understood.

For record FAM 40-mer dsDNA (dsDNA) DNA 1: GTGTTCGGACTCTGCCTCAAGACGGTAGTCAACGTGCTTG DNA 2: CAAGCACGTTGACTACCGTCTTGAGGCAGAGTCCGAACAC the listed Kd is 1.98
